Data credit: patent EP4603105A1

molecular target: GDP-bound KRAS wild-type protein (Homo sapiens, UniProt P01116); assay: Binding to KRAS by surface plasmon resonance (SPR), dissociation constant KD; conditions: Single Cycle Kinetics
Sequence (P01116 1-188 isoform P01116-2): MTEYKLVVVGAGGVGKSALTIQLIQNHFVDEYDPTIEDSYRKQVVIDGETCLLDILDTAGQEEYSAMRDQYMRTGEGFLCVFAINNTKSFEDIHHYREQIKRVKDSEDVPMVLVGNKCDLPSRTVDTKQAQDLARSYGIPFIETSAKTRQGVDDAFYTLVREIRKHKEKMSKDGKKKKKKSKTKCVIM
pKd: −log10 of the molar value.
Returns fulfilled if the recorded pKd is greater than or equal to 9, and not fulfilled otherwise.

Record excerpt, results attached:
{"columns": ["MOLECULE_SMILES", "ASSIGNED_CATEGORY"],
 "data": [
  ["CC[C@H](C)[C@@H]1NC(=O)[C@H](CC(C)C)N(C)C(=O)C[C@@H](C(=O)N(C)C)N(C)C(=O)[C@H](C2CCCC2)N(C)C(=O)C2(CCCC2)NC(=O)[C@@H]2CCN2C(=O)[C@H](CCc2cc(F)c(C(F)(F)F)c(F)c2)NC(=O)CN(C)C(=O)[C@H](Cc2ccc(C(F)(F)F)cc2)N2CC/C=C(/F)C[C@@H](C2=O)N(C)C(=O)CN(C)C1=O", "not fulfilled"],
  ["CC[C@H](C)[C@@H]1NC(=O)[C@H](CC(C)C)N(C)C(=O)C[C@@H](C(=O)N2CCOCC2)N(CC)C(=O)[C@H](C2CCCC2)N(C)C(=O)C2(CCC2)NC(=O)[C@@H]2CC(F)(F)CN2C(=O)[C@H](CCc2cc(F)c(C(F)(F)F)c(F)c2)NC(=O)CN(C)C(=O)[C@H](Cc2ccc(C(F)(F)F)cc2)N2CCCCC[C@@H](C2=O)N(C)C(=O)CN(C)C1=O", "not fulfilled"],
  ["CC[C@H](C)[C@@H]1NC(=O)[C@H](CC(C)C)N(C)C(=O)C[C@@H](C(=O)N2CCOCC2)N(C)C(=O)[C@H](C2CCCC2)N(C)C(=O)C2(CCC2)NC(=O)[C@@H]2C[C@@H](O)CN2C(=O)[C@H](CCc2cc(F)c(C(F)(F)F)c(F)c2)NC(=O)CN(C)C(=O)[C@H](Cc2ccc(C(F)(F)F)cc2)N2CCCCC[C@@H](C2=O)N(C)C(=O)CN(C)C1=O", "fulfilled"]
]}

Task: Please indicate if the recorded pKd for "CCC[C@H]1C(=O)N[C@@H]([C@@H](C)CC)C(=O)N(C)CC(=O)N(C)[C@H]2C/C=C\CCN(C2=O)[C@@H](Cc2ccc(C(F)(F)F)cc2)C(=O)N(C)CC(=O)N[C@@H](CCc2cc(F)c(C(F)(F)F)c(F)c2)C(=O)N2CC3(CC3)C[C@H]2C(=O)N(C)C2(CCC2)C(=O)N(C)[C@@H](C2CCCC2)C(=O)N(C)[C@H](C(=O)N(C)C)CC(=O)N1C" meets or exceeds 9.
Result: fulfilled
